- assayInfo: Enzyme kinetic analysis of yCD series proteins after DTPA modification, marking and purification
- Type: biochemical
observable: Vmax (µM/min)
Answers are plain numbers, in µM/min.

Guide cases for Vmax, answers given:
>  <molecule>
In-DTPA-RGD4C-yCD: DTPA-RGD4C-yCD treated with the stable isotope of indium under simulated marking conditions (conjugate) MACDCRGDCFCVTGGMASKWDQKGMDIAYEEAALGYKEGGVPIGGCLINNKDGSVLGRGHNMRFQKGSATLHGEISTLENCGRLEGKVYKDTTLYTTLSPCDMCTGAIIMYGIPRCVVGENVNFKSKGEKYLQTRGHEVVVVDDERCKKIMKQFIDERPQDWFEDIGELEHHHHHH

>  <resultUnits>
µM/min

>  <Vmax>
226.8

$$$$
>  <molecule>
DTPA-RGD4C-yCD: RGD4C-yCD protein modified by the metal chelating agent DTPA (conjugate) MACDCRGDCFCVTGGMASKWDQKGMDIAYEEAALGYKEGGVPIGGCLINNKDGSVLGRGHNMRFQKGSATLHGEISTLENCGRLEGKVYKDTTLYTTLSPCDMCTGAIIMYGIPRCVVGENVNFKSKGEKYLQTRGHEVVVVDDERCKKIMKQFIDERPQDWFEDIGELEHHHHHH

>  <resultUnits>
µM/min

>  <Vmax>
224.6

$$$$

Proceed to the following item.
Please give the measured Vmax for this molecule: DTPA-yCD: yCD protein modified by the metal chelating agent DTPA (conjugate) MVVTGGMASKWDQKGMDIAYEEAALGYKEGGVPIGGCLINNKDGSVLGRGHNMRFQKGSATLHGEISTLENCGRLEGKVYKDTTLYTTLSPCDMCTGAIIMYGIPRCVVGENVNFKSKGEKYLQTRGHEVVVVDDERCKKIMKQFIDERPQDWFEDIGELEHHHHHH
286.8
